- TEST_SUMMARY: Inhibition of RIPK3 in human HT-29 cells assessed as reduction in TSZ-induced necroptosis by Cell Titer Glo assay

STRUCTURE: CC(=O)O[C@@H]1CCC(C)(C)[C@H]2C[C@@H](O)C3=C[C@@H](CCC(=O)[C@@]21C)[C@H](C)C3=O
IC50 (nM): 200
